pIC50 reference
Target: Axl (Homo sapiens, UniProt P30530)
Sequence (P30530 26-894): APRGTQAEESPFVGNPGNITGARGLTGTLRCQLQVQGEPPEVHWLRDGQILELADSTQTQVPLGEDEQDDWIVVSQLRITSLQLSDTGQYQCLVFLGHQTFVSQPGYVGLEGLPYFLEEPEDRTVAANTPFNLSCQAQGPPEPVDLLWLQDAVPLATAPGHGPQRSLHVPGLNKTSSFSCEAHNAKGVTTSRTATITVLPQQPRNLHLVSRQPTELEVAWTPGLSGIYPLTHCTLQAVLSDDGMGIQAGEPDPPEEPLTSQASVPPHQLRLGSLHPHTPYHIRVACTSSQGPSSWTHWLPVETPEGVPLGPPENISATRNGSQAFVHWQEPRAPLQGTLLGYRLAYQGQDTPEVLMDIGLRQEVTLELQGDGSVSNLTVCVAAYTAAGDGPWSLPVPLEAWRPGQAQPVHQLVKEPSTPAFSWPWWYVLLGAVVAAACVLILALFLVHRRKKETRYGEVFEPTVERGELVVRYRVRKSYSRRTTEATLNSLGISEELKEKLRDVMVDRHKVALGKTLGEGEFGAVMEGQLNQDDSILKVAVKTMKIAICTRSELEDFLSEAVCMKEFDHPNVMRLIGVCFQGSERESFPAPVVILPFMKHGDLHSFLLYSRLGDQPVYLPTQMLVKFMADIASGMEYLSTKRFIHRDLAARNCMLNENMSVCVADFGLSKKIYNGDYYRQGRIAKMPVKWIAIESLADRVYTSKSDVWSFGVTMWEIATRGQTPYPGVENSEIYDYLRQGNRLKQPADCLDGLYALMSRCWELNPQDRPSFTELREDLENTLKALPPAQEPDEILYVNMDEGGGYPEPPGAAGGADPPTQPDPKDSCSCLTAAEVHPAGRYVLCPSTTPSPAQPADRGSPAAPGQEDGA
Assay: Cellular Axl inhibition ELISA (p-Axl, Gas6-induced) using H1299 cells
Type: cell-based
Set-up: especially H1299 cell endogenously expresses Axl; endogenous in cells; host or cells: H1299
Details: read-out: Cellular Axl activity by H1299 Elisa (IC50)
pIC50: −log10 of the molar value.

Solved entries:
molecule	measured
CCCn1cc(OCC(F)(F)F)c(C(=O)Nc2ccc(Oc3ccnc4cc(OC)c(OC)cc34)cc2)n1	> 6.30
CCCn1cc(OCC(F)(F)F)c(C(=O)Nc2ccc(Oc3ccnc4cc(OC)c(OC)cc34)nn2)n1	> 6.30
CCCn1cc(OCCN(C)C)c(C(=O)Nc2ccc(Oc3ccnc4cc(OC)c(OC)cc34)cn2)n1	> 6.30
CCCn1cc(OCC(F)(F)F)c(C(=O)Nc2ccc(Oc3ccnc4cc(OC)c(OC)cc34)cn2)n1	> 6.30
COc1cc2nccc(Oc3ccc(NC(=O)c4nn(C5CC5)cc4OCC(F)F)nc3)c2cc1OC	> 6.30
COc1cc2nccc(Oc3ccc(NC(=O)c4nn(CC(C)O)cc4OCC(F)F)nc3)c2cc1OC (stereo not drawn)	> 6.30
COc1cc2nccc(Oc3ccc(NC(=O)c4nn(CCN)cc4OCC(F)(F)F)cn3)c2cc1OC	≤ 6.00
COCCn1cc(OCC(F)(F)F)c(C(=O)Nc2ccc(Oc3ccnc4cc(OC)c(OC)cc34)cn2)n1	> 6.30
CCCn1cc(OCC2CNC2)c(C(=O)Nc2ccc(Oc3ccnc4cc(OC)c(OC)cc34)cn2)n1	≤ 6.00
COc1cc2nccc(Oc3ccc(NC(=O)c4nn(C5CC5)cc4OC(C)C)nc3)c2cc1OC	> 6.30

Reported Axl (Homo sapiens, UniProt P30530) pIC50 for item COc1cc2nccc(Oc3ccc(NC(=O)c4nn(CC(C)O)cc4OCC(F)(F)F)cc3C)c2cc1OC (stereo not drawn) was > 6.30

Record COc1cc2nccc(Oc3ccc(NC(=O)c4nn(CCOC5CC5)cc4OCC(F)(F)F)cc3C)c2cc1OC / Axl (Homo sapiens, UniProt P30530), pIC50 recorded as 6.00 to 6.30

Entry COCCn1cc(OCC(F)(F)F)c(C(=O)Nc2ccc(Oc3ccnc4cc(OC)c(OC)cc34)nn2)n1 ; assay system Axl (Homo sapiens, UniProt P30530); pIC50 recorded at > 6.30

Value sought: pIC50, system Axl (Homo sapiens, UniProt P30530), item COc1cc2nccc(Oc3ccc(NC(=O)c4nn(C5CC5)cc4OCC(F)F)nn3)c2cc1OC . Result: > 6.30

Query CNCCn1cc(OCC(F)(F)F)c(C(=O)Nc2ccc(Oc3ccnc4cc(OC)c(OC)cc34)c(F)c2)n1 on Axl (Homo sapiens, UniProt P30530); pIC50 returned: > 6.30

GET /values?item= COc1cc2nccc(Oc3ccc(NC(=O)c4nn(CCC5CCCC5)cc4OCC(F)(F)F)nc3)c2cc1OC &system= Axl (Homo sapiens, UniProt P30530) returns pIC50: > 6.30

Measured pIC50 for this entry COc1cc2nccc(Oc3ccc(NC(=O)c4nn(C5CC5)cc4OC(C)C)nn3)c2cc1OC on Axl (Homo sapiens, UniProt P30530): > 6.30

// pIC50 (Axl (Homo sapiens, UniProt P30530)) for COc1cc2nccc(Oc3ccc(NC(=O)c4nn(C5CCNC5)cc4OCC(F)(F)F)nc3)c2cc1OC (stereo not drawn) = > 6.30

Let me check: COc1cc2nccc(Oc3ccc(NC(=O)c4nn(CC5COC5)cc4OCC(F)(F)F)c(F)c3)c2cc1OC , system Axl (Homo sapiens, UniProt P30530), measured pIC50 is > 6.30

The reported measurements were obtained from patent US12162858B2.
